- System: LXRa homodimer (NR concentration 270 nM)
- assay_name: PBM binding z-score (relative to random genomic background probes); higher = stronger binding; sequences stand for … in GC…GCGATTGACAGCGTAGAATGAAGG
property_measured: PBM binding z-score

> print(dat)
                              seq.text    value
 1  TGACTGAGGTTAAAGATCAGGGAACGTGGCGTCG   -0.224
 2  CATACCGGGTCAGCTAGGCCAGAGTAGGGACGGC   -0.499
 3  ATATGTAGGATATCGGGTCATTCAGTTTGCGCAT    0.589
 4  TAGCCTAGGTCATGCGGGCCAGCATAGTGTCGGC    0.115
 5  TGTCAAAGTTCTAAGGTAACGTAAGTATCCACAC   -0.388
 6  GGAACTAGGGCAAAGTTGATAGCATCTGTCGACG   -0.596
 7  CCTAGTTGGTCAAGGTCACACATGCTATAGGTAC     2.25
 8  CGAACTAGGTCAAAGGACAGCGAAAGGCGACGTA   -0.185
 9  GCTGCTAGGTCAGGTTGGTCTGCTAACGGGTACG   -0.237
10  CGTCAAAGTTAAAGGTAACGTAACAGAAAGCAGC  -0.0511
11  CCAACTAGGTCACCAGGACAGTGAAGAGGTTGGA    0.434
12  TTACCAAAGTGAAAGGTCGTTGATGCACGCCTTG    0.432
13  TCTCGGAGGTCACGAAGGTCAGAGCTTTCCAGAG     3.52
14  CGTCCAAGGTCAATGCGAGGTCAGTGAAAGCATT     4.28
15  GGAACGGGGGCATTCGAGTTGATAGCATGGCGAT    0.603
16  CCTACTGGGCCACGAAAGGTAATTGATTCAGTGA   -0.337
17  TGAATGACGTTAAAGATCAGGGAACGTGGCGTCG   -0.178
18  CGAACTAGGTCACCAGGACTGTGAAGAGGTTGGA   -0.155
19  ATATGTAAGTTAGGGTCATTCAGAAAGTAGGGAA     1.55
20  CCTAGTTGGTCAAGCTCACACACGCTATAGGTAC    0.418
21  ACTCGGAGGACAAAGGTCACAGCTACGCCAGTGA     3.07
22  ATATGTAGGATAGGGTCATTCAGAAAGTAGGGAA     0.63
23  GCTTACGGGTCAAAGGTTACAGCATGAATAGAAT    0.488
24  GCTTACGGGTGAAAGGTTATAGCATGAATAGAAT    0.142
25  CGAACTAGTTCAAGGACAGTGAATCTCCGCACGC   -0.253
26  CGTCCAAGGTCATAAGAGGTCAGTGAAGACAGAT     5.88
